The reported numbers originate from ChEMBL document CHEMBL2311419.

Quick reference for Concentration giving maximum ALP activity among some compounds
Species: Mus musculus
assay-notes: Stimulation of alkaline phosphatase activity in mouse calvarial osteoblasts assessed as concentration required for maximum activity after 48 hrs by spectrophotometric analysis
Report the value in pM with no unit label.

These recorded examples may help you get a feel for the data.
COC(=O)C1=C(C)NC2=C(C(=O)CC(C)(C)C2)C1c1cc(C(C)(C)C)c2oc(=O)c(C(=O)OC)cc2c1 (racemic)	10000
CCOC(=O)c1cc2cc(C3C(C(=O)OC)=C(C)NC4=C3C(=O)CC(C)(C)C4)cc(C(C)(C)C)c2oc1=O (racemic)	1
COC(=O)C1=C(C)NC2=C(C(=O)CCC2)C1c1cc(C(C)(C)C)c2oc(=O)c(C(=O)OC)cc2c1 (racemic)	100
CCOC(=O)C1=C(C)NC2=C(C(=O)CC(C)(C)C2)C1c1cc(C(C)CC)c2oc(=O)c(C(=O)OCC)cc2c1 (racemic)	100

query: Which Concentration giving maximum ALP activity value is on record for CCOC(=O)C1=C(C)NC2=C(C(=O)CCC2)C1c1cc(C(C)(C)C)c2oc(=O)c(C(=O)OC)cc2c1 (racemic) ?
result: 1

query: Next record, please: CCOC(=O)c1cc2cc(C3C(C(=O)OC)=C(C)NC4=C3C(=O)CCC4)cc(C(C)CC)c2oc1=O (racemic)
result: 100
